- target_desc: T1, full-length beta-Catenin (Uniprot ID P35222) (Homo sapiens (Human), UniProt P35222 1-781)
- T1 construct: Said to be full-length in the fluorescence polarization assay; also called bCat; B-Catenin
- T1 sequence: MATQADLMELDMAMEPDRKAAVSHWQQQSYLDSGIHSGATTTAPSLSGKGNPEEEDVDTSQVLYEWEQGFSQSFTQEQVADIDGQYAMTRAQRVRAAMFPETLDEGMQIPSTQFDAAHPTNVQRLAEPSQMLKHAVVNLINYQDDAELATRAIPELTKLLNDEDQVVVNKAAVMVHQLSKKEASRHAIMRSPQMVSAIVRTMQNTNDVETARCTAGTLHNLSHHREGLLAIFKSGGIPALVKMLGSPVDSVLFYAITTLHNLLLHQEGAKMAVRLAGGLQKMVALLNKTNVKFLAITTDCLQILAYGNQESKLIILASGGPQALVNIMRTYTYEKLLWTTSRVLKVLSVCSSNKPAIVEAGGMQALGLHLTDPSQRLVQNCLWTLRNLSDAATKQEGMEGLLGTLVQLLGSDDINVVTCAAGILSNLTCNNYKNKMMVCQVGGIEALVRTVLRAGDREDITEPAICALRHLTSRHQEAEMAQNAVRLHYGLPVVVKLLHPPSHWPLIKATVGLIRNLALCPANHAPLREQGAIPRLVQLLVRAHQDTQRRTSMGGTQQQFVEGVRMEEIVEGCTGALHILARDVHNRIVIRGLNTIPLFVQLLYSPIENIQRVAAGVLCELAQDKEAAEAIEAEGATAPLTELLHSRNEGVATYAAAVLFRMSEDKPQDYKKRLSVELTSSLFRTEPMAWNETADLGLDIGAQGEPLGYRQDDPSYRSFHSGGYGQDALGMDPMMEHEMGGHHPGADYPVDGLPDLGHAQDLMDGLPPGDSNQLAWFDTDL
- assay_method_text: fluorescence polarization competition; peptide titrated against 10 nM full-length beta-catenin + 10 nM 5FAM-TCF4(10-53) probe
Starred links: 1 amine or outer side, 2 acyl side, 3 side chain; linkers in the order of their positions; H or OH if unused. Positions of bridges follow the written chain, without caps; N, C: chain ends. Non-standard residues stand in square brackets, D forms with d. Primed or numbered codes have the meaning given here. B5(16) = 2-amino-2-(pent-4-en-1-yl)hept-6-enoic acid = 2,2-bis(4-pentenyl)glycine (stitching residue), C=CCCCC(CCCC=C)(N[*:1])C(=O)[*:2]; B5(9) = 2-amino-2-(pent-4-en-1-yl)hept-6-enoic acid (2,2-bis(4-pentenyl)glycine), C=CCCCC(CCCC=C)(N[*:1])C(=O)[*:2]; Bta = N[C@@H](Cc1csc2ccccc12)C(=O)O; αAllylPro = C=CC[C@@]1(C(=O)O)CCCN1; S8 = C=CCCCCCC[C@](C)(N)C(=O)O
assay_readout: pEC50
Interpret pEC50 as the negative base-10 log of the concentration measured in mol/L.

{"columns": ["binder", "recorded_result"],
 "data": [
  ["Ac-[αAllylPro]DI[B5(9)]DEAAFQ[S8]F[Bta]W-NH2 (staple 1-4, 4-11, Stapled peptide; Earlier-eluting staple isomer composition) [I-643]", 6.02]
]}

Entry under test: Ac-[αAllylPro]DI[B5(16)]DEAAFQ[S8]F[Bta]F-NH2 (staple 1-4, 4-11, Stapled peptide) [I-635] . Its pEC50 was 6.77

Entry under test: XDIXDEAAFQXFXS (not fully specified; Ac-PL3-Asp-Ile-B5-Asp-Glu-Ala-Ala-Phe-Gln-S8-Phe-BztA-Ser-NH2; N-terminal acetyl, C-terminal amide; non-natural PL3 (1), B5 (4), S8 (11), BztA (13); staples PL3-B5 and B5-S8 by olefin metathesis, Stapled peptide; Later-eluting staple isomer composition) [I-640] . Its pEC50 was 7.06

Entry under test: XDLXDEAAFTXFXH (not fully specified; Ac-PL3-Asp-Leu-B5-Asp-Glu-Ala-Ala-Phe-Thr-S8-Phe-BztA-His-NH2; N-terminal acetyl, C-terminal amide; non-natural PL3 (1), B5 (4), S8 (11), BztA (13); staples PL3-B5 and B5-S8 by olefin metathesis, Stapled peptide; Earlier-eluting staple isomer composition) [I-617] . Its pEC50 was 6.60

Entry under test: XDIXDEAAFQXFXS (not fully specified; Ac-PL3-Asp-Ile-B5-Asp-Glu-Ala-Ala-Phe-Gln-S8-Phe-BztA-Ser-NH2; N-terminal acetyl, C-terminal amide; non-natural PL3 (1), B5 (4), S8 (11), BztA (13); staples PL3-B5 and B5-S8 by olefin metathesis, Stapled peptide; Earlier-eluting staple isomer composition) [I-639] . Its pEC50 was 6.96

Entry under test: XDIXDEAAFQXFXT (not fully specified; Ac-PL3-Asp-Ile-B5-Asp-Glu-Ala-Ala-Phe-Gln-S8-Phe-BztA-Thr-NH2; N-terminal acetyl, C-terminal amide; non-natural PL3 (1), B5 (4), S8 (11), BztA (13); staples PL3-B5 and B5-S8 by olefin metathesis, Stapled peptide; Later-eluting staple isomer composition) [I-642] . Its pEC50 was 6.93

Entry under test: XDIXDRAAFQXFXQ (not fully specified; Ac-PL3-Asp-Ile-B5-Asp-Arg-Ala-Ala-Phe-Gln-S8-Phe-BztA-Gln-NH2; N-terminal acetyl, C-terminal amide; non-natural PL3 (1), B5 (4), S8 (11), BztA (13); staples PL3-B5 and B5-S8 by olefin metathesis, Stapled peptide; Earlier-eluting staple isomer composition) [I-613] . Its pEC50 was 5.79
